- system.tested: DLG1_2, Q12959
- Sequence (Q12959 314-412): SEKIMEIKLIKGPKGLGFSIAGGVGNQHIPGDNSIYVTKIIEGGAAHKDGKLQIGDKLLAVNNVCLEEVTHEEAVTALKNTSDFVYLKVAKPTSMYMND
- protocol.details: holdup assay
- Parameters: key: below the threshold = too weak to quantify, mostly under pKd 3.1 to 4
- condition.context: plain residues with an end cap or a label only (N-terminal biotin on a linker: ado-ado)
In this section, each of the binders is paired with its reported pKd.
quantity: pKd

[[record]]
binder = "PPGKHLVTEV [KCNA7, Q96RP8]"
assay_result = 5.1

[[record]]
binder = "NTLNRKTTPV [CACNG8, Q8WXS5]"
assay_result = 5.05

[[record]]
binder = "KKMLQRRTLL [OR8G1, Q15617]"
assay_result = 4.09

[[record]]
binder = "QKAPTKEFYA [SDC2, P34741]"
assay_result = 3.49

[[record]]
binder = "SPDRDRESIV [SCN5A, Q14524]"
assay_result = 4.86

[[record]]
binder = "DPAESMESLV [PTPRG, P23470]"
assay_result = 5.03

[[record]]
binder = "PYPTADHMLA [JUP, P14923]"
assay_result = 3.6

[[record]]
binder = "KSRVAFFEEL [NF2, P35240]"
assay_result = 3.5

[[record]]
binder = "GIKKITSTAL [RPS6KA3, P51812]"
assay_result = 4.32

[[record]]
binder = "VKRNSKETVV [MARCHF3, Q86UD3]"
assay_result = 6.11

[[record]]
binder = "SVTSERETNI [SLC16A7, O60669]"
assay_result = 4.42

[[record]]
binder = "STKRKLASAV [NCF1, P14598]"
assay_result = 4.61


Where do these numbers come from? They come from paper PMC9482650.
